// provenance: patent US5462952A

# system-tested: 5-Lipoxygenase (Rattus norvegicus)
# Sequence (P12527 1-673): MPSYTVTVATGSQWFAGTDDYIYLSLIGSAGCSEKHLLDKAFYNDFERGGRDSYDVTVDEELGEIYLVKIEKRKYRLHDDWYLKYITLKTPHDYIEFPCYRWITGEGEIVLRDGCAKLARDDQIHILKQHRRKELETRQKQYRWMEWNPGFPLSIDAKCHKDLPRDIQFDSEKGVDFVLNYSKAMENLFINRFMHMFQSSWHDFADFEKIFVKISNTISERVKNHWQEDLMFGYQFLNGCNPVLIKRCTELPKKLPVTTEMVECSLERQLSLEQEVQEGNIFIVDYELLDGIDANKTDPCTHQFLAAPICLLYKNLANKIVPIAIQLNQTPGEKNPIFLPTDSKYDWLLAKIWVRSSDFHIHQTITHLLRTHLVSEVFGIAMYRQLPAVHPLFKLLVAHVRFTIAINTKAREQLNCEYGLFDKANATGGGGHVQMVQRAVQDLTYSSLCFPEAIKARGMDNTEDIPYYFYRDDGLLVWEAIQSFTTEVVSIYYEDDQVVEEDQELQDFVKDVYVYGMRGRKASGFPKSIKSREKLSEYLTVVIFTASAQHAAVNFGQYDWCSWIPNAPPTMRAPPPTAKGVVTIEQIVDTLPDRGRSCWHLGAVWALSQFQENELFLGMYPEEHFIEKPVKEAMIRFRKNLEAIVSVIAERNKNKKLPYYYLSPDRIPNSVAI
# test-protocol: ARBL whole cell 5-lipoxygenase assay (LTB4 formation in RBL-1 cells, A23187-stimulated)
# condition-context: Table 2
pIC50: −log10 of the molar value.
endpoint-label: pIC50

Examples from the recorded data:
>>> print(df.to_string())
                                   compound  endpoint_label  recorded_value
0  Cc1ccc(Cl)c(Nc2ccccc2-c2nnc(N)s2)c1Cl [Example 4]           pIC50            6.22
1  FC(F)(F)c1cccc(Nc2ccccc2-c2n[nH]c(=S)s2)c1 [Example 12]           pIC50            6.06
2  Cc1cccc(Nc2ccccc2-c2n[nH]c(=S)o2)c1C [Example 9]           pIC50            6.00
3  Cc1ccc(Cl)c(Nc2ccccc2-c2nnc(NC#N)o2)c1Cl [Example 23]           pIC50            6.05

P = FC(F)(F)c1cccc(Nc2ccccc2-c2n[nH]c(=S)o2)c1 [Example 6]
Q = Cc1ccc(Cl)c(Nc2ccccc2-c2nnc(S(C)(=O)=O)o2)c1Cl [Example 20]
R = Cc1ccc(Cl)c(Nc2ccccc2-c2nnc([S+](C)[O-])s2)c1Cl (centres unmarked) [Example 29]
### Prompt Reorder: pIC50, max to min. I'd appreciate it if you listed the labels in the requested order.
### Response P, R, Q
(P: 6.11, R: 5.48, Q: 5.20)
